The reported measurements were obtained from patent US20030068675.

Target: T1, ZFP SBS#826 (synthetic)
T1 chain: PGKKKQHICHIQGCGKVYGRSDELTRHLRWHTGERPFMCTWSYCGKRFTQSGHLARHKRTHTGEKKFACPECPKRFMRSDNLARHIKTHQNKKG
Assay: EMSA
Conditions: tags: MBP fusion
measured_endpoint: Kd
Param answer (str): number followed by unit.

Please report the recorded Kd for GAGGGAGCGA (dsDNA) DNA 1: GAGGGAGCGA DNA 2: TCGCTCCCTC .
2.75 nM
